# SYSTEM_TESTED: EGFR(D770_N771insSVD) expressing Ba/F3 stable cell line (Homo sapiens, UniProt P00533, DUP768-770, cells depend on it)
# Sequence (P00533 with tags, fused parts or gaps DUP768-770): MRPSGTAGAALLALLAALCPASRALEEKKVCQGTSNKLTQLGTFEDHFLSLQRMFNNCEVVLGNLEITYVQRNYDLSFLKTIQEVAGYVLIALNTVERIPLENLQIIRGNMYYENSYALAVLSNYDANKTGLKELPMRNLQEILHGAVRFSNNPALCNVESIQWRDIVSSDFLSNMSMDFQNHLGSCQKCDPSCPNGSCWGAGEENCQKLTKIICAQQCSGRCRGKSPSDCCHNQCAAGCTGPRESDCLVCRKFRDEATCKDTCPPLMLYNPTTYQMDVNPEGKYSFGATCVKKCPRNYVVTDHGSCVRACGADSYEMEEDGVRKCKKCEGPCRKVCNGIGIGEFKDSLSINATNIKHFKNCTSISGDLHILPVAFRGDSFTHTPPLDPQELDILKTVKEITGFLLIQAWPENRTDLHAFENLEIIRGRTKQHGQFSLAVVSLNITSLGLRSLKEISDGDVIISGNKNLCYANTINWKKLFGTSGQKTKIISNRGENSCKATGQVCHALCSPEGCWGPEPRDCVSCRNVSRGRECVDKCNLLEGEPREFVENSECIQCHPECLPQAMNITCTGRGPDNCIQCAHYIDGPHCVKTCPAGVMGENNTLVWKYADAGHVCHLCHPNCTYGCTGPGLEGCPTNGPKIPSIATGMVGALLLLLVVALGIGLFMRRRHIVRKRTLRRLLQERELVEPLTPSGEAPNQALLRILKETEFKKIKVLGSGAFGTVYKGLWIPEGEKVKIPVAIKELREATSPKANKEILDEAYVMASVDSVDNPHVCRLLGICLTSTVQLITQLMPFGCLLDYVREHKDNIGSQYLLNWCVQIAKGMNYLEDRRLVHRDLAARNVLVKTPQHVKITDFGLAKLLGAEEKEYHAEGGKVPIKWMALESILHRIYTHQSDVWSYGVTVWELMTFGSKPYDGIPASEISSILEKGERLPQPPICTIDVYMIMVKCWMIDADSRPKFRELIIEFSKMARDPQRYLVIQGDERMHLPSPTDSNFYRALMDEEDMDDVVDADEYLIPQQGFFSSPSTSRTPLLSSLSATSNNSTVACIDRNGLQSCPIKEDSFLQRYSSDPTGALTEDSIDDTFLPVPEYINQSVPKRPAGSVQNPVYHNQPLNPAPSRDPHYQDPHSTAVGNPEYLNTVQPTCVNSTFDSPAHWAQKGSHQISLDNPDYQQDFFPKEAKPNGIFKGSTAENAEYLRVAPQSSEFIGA
# PROCEDURE_TEXT: Cellular proliferation (Alamar Blue) assay, EGFR D770_N771insSVD Ba/F3
# Type: cell-based
# CONDITION_SET: 72 hr, read-out: D770 IC50
Structures can show the parent of a compound that is named as a salt.
MEASURED_PARAMETER: GI50 (nM)
Numbers only, in nM.

Example entries and their recorded answers appear below.
Input line: So what's the measured GI50 for this one? C=CC(=O)Nc1ccc(F)c(Nc2nc(Nc3cc(COC)n(C)n3)ncc2Cl)c1 [Compound 21]
Output line: 4760

Input line: So what's the measured GI50 for this one? C=CC(=O)Nc1ccc(F)c(Nc2nc(Nc3cnn(C)c3)ncc2-c2cccc(OC(F)(F)F)c2)c1 [Compound 96, trifluoroacetate]
Output line: 345

Input line: So what's the measured GI50 for this one? C=CC(=O)Nc1cccc(Nc2nc(Nc3cnn(C)c3)ncc2-c2ccc(C(F)(F)F)nc2)c1 [Compound 73]
Output line: 39

Alright, here's another molecule for you.
Input line: So what's the measured GI50 for this one? C=CC(=O)Nc1ccc(F)c(Nc2nc(Nc3cnn(C)c3)ncc2-c2ccc(C(C)(C)C)cc2)c1 [Compound 76, trifluoroacetate]
Output line: 265

====

# SYSTEM_TESTED: EGFR (H773insNPH) expressing Ba/F3 stable cell line (Homo sapiens, UniProt P00533, DUP771-773, cells depend on it)
# Sequence (P00533 with tags, fused parts or gaps DUP771-773): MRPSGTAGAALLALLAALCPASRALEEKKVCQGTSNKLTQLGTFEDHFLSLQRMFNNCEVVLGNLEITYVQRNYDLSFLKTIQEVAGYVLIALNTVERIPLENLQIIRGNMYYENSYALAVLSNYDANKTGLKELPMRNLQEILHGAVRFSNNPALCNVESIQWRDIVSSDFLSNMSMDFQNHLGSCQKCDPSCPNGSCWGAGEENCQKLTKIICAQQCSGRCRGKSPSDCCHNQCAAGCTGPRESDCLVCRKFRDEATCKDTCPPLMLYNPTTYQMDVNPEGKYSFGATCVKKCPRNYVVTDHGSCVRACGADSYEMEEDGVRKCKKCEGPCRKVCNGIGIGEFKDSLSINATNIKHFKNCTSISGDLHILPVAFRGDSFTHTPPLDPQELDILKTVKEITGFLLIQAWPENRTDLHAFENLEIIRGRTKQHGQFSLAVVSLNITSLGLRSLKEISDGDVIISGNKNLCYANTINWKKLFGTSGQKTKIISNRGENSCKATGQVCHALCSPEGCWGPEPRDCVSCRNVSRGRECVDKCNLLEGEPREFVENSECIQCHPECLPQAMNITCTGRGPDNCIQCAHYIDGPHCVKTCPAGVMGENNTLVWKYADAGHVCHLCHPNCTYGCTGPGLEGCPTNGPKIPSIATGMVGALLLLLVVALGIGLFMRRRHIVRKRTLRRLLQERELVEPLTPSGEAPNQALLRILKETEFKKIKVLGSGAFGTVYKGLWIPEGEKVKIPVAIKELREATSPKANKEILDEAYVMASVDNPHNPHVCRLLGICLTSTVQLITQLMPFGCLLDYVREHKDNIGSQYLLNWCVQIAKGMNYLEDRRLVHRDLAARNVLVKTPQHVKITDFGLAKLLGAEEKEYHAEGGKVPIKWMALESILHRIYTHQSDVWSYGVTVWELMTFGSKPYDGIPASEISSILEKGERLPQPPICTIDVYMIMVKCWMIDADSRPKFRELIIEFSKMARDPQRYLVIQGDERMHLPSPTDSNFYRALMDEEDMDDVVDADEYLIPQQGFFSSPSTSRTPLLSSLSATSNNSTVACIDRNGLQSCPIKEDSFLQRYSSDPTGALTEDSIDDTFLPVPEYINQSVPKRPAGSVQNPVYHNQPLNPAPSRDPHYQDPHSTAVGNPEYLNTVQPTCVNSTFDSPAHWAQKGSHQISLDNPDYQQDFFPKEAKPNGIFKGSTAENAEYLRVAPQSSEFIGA
# PROCEDURE_TEXT: Cellular proliferation (Alamar Blue) assay, EGFR H773insNPH Ba/F3
# Assay type: cell-based
# CONDITION_SET: 72 hr, read-out: NPH IC50
Counter-ions that a name gives are not always drawn.
Binning scheme for GI50: low (below 40 nM), medium (40 nM to below 100 nM), high (100 nM or more)

Solved entries (count: 10):
Input line: Bin? C=CC(=O)Nc1ccc(F)c(Nc2nc(Nc3cnn(C)c3)ncc2-c2cnc(C(F)(F)F)nc2)c1
Output line: low

Input line: Bin? C=CC(=O)Nc1ccc(F)c(Nc2nc(Nc3cnn(C)c3)ncc2-c2ccccc2)c1
Output line: high

Input line: Bin? C=CC(=O)Nc1ccc(F)c(Nc2nc(Nc3cnn(C)c3)ncc2-c2cncc(N(C)C)c2)c1 [Compound 116, trifluoroacetate]
Output line: high

Input line: Bin? C=CC(=O)Nc1cccc(Nc2nc(Nc3cnn(C)c3)ncc2-c2ccc(OC(F)F)cc2)c1 [Compound 142, trifluoroacetate]
Output line: low

Input line: Bin? C=C(F)C(=O)Nc1ccc(F)c(Nc2nc(Nc3cnn(C)c3)ncc2Cl)c1
Output line: high

Input line: Bin? C=CC(=O)Nc1ccc(F)c(Nc2nc(Nc3cnn(C)c3)ncc2-c2ccc(C(F)(F)F)nc2)c1
Output line: medium

Input line: Bin? C=CC(=O)Nc1cccc(Oc2nc(Nc3cnn(C)c3)ncc2-c2cncc(F)c2)c1
Output line: high

Input line: Bin? C=CC(=O)Nc1cccc(Oc2nc(Nc3cnn(C)c3)ncc2-c2ccc(C(F)(F)F)nc2)c1
Output line: high

Input line: Bin? C=CC(=O)Nc1ccc(F)c(Nc2nc(Nc3cnn(C)c3)ncc2-c2ccc(Cl)nc2)c1
Output line: low

Input line: Bin? C=CC(=O)Nc1ccc(F)c(Nc2nc(Nc3cnn(C)c3)ncc2-c2cncc(OC(F)F)c2)c1
Output line: medium

New cases:
Input line: Bin? C=CC(=O)Nc1ccc(F)c(Nc2nc(Nc3cnn(C)c3)ncc2-c2cccc(N(C)CCN(C)C)c2)c1
Output line: high

Input line: Bin? C=CC(=O)Nc1ccc(F)c(Nc2nc(Nc3cn(C)nc3Cl)ncc2-c2ccc(C(F)(F)F)cc2)c1 [Compound 112, trifluoroacetate]
Output line: high

====

# SYSTEM_TESTED: EGFR (H773insNPH) expressing Ba/F3 stable cell line (Homo sapiens, UniProt P00533, DUP771-773, cells depend on it)
# PROCEDURE_TEXT: Cellular proliferation (Alamar Blue) assay, EGFR H773insNPH Ba/F3
# Type: cell-based
# CONDITION_SET: 72 hr, read-out: NPH IC50
Structures can show the parent of a compound that is named as a salt.
Binning scheme for GI50: low value: < 50 nM; medium value: ≥ 50 nM and < 100 nM; high value: ≥ 100 nM

Solved entries (count: 5):
Input line: Bin? C=CC(=O)Nc1ccc(F)c(Oc2nc(Nc3cnn(C)c3)ncc2-c2ccc(C(F)(F)F)cc2)c1 [Compound 152]
Output line: high value

Input line: Bin? C=CC(=O)Nc1ccc(F)c(Nc2nc(Nc3cnn(CCN(C)C)c3)ncc2-c2ccc(C(F)(F)F)cc2)c1 [Compound 72, trifluoroacetate]
Output line: medium value

Input line: Bin? C=CC(=O)Nc1ccc(F)c(Nc2nc(Nc3cnn(C)c3)ncc2-c2ccc(F)nc2)c1 [Compound 100]
Output line: medium value

Input line: Bin? C=CC(=O)Nc1ccc(F)c(Nc2nc(Nc3cnn(C)c3)ncc2-c2ccc(Cl)cc2)c1 [Compound 61]
Output line: medium value

Input line: Bin? C=CC(=O)Nc1cccc(Nc2nc(Nc3cnn(C)c3)ncc2C(=O)NC(C)c2ccccc2)c1 (stereo not drawn) [Compound 34]
Output line: high value

New cases:
Input line: Bin? CN(C)C/C=C/C(=O)Nc1cccc(Nc2nc(Nc3cn(C)nc3Cl)ncc2C(F)(F)F)c1 [Compound 54]
Output line: high value

Input line: Bin? C=CC(=O)Nc1cccc(Nc2nc(Nc3cnn(C)c3)ncc2-c2cccc(F)c2)c1 [Compound 115, trifluoroacetate]
Output line: low value

Input line: Bin? C=CC(=O)Nc1ccc(F)c(Nc2nc(Nc3cnn(C)c3)ncc2-c2cncc(Cl)c2)c1 [Compound 102]
Output line: low value

Input line: Bin? [2H]C([2H])=CC(=O)Nc1ccc(F)c(Nc2nc(Nc3cnn(C)c3)ncc2-c2ccc(C(F)(F)F)cc2)c1 [Compound 247]
Output line: high value

Input line: Bin? C=CC(=O)Nc1ccc(F)c(Nc2nc(Nc3cnn(C)c3)ncc2-c2ccc(N(C)C)cc2)c1 [Compound 103]
Output line: high value

Input line: Bin? C=CC(=O)Nc1ccc(F)c(Nc2nc(Nc3cnn(C)c3)ncc2-c2ccc(OC(F)F)nc2)c1 [Compound 70]
Output line: medium value

====

# SYSTEM_TESTED: EGFR(D770_N771insSVD) expressing Ba/F3 stable cell line (Homo sapiens, UniProt P00533, DUP768-770, cells depend on it)
# PROCEDURE_TEXT: Cellular proliferation (Alamar Blue) assay, EGFR D770_N771insSVD Ba/F3
# Format: cell-based
# CONDITION_SET: 72 hr, read-out: D770 IC50
Structures can show the parent of a compound that is named as a salt.
MEASURED_PARAMETER: log10(GI50) (log10 of the value in nM)
Units before log transform: nM; reported quantity: GI50; transform: log10.

Input line: So what's the measured log10(GI50) for this one? C=CC(=O)Nc1ccc(F)c(Nc2nc(Nc3cnn(C)c3)ncc2-c2cncnc2)c1 [Compound 147, trifluoroacetate]
Output line: 2.02

Input line: So what's the measured log10(GI50) for this one? C=CC(=O)Nc1ccc(F)c(Nc2nc(Nc3cnn(C)c3)ncc2-c2cccc3ccccc23)c1 [Compound 136, trifluoroacetate]
Output line: 2.03

Input line: So what's the measured log10(GI50) for this one? C=CC(=O)Nc1cc(Nc2nc(Nc3cnn(C)c3)ncc2-c2ccc(C(F)(F)F)cc2)ccc1N(C)CCN(C)C
Output line: 2.38

Input line: So what's the measured log10(GI50) for this one? C=CC(=O)Nc1ccc(F)c(Nc2nc(Nc3cnn(C)c3)ncc2-c2ccc3ncnn3c2)c1
Output line: 2.17

Input line: So what's the measured log10(GI50) for this one? C=CC(=O)Nc1ccc(F)c(Nc2nc(Nc3cnn(C)c3)ncc2-c2ccc(N3CCOCC3)nc2)c1
Output line: 2.98

Would you mind listing log10(GI50) for each of the following compounds?
1. C=CC(=O)Nc1ccnc(Nc2nc(Nc3cnn(C)c3)ncc2-c2ccc(C(F)(F)F)cc2)c1
2. C=CC(=O)Nc1ccc(F)c(Nc2nc(Nc3cnn(C)c3)ncc2-c2ccc(-c3ccccc3)cc2)c1
3. C=CC(=O)Nc1cccc(Oc2nc(Nc3cnn(C)c3)ncc2-c2ccc(C)nc2)c1
4. C=CC(=O)Nc1cccc(-n2c3cc(C(F)(F)F)ccc3c3cnc(Nc4cnn(C)c4)nc32)c1

Output line:
1. 3.51
2. 2.99
3. 2.06
4. 3.90

====

# SYSTEM_TESTED: EGFR (A767_dupASV) expressing Ba/F3 stable cell line (Homo sapiens, UniProt P00533, DUP767-769, cells depend on it)
# Sequence (P00533 with tags, fused parts or gaps DUP767-769): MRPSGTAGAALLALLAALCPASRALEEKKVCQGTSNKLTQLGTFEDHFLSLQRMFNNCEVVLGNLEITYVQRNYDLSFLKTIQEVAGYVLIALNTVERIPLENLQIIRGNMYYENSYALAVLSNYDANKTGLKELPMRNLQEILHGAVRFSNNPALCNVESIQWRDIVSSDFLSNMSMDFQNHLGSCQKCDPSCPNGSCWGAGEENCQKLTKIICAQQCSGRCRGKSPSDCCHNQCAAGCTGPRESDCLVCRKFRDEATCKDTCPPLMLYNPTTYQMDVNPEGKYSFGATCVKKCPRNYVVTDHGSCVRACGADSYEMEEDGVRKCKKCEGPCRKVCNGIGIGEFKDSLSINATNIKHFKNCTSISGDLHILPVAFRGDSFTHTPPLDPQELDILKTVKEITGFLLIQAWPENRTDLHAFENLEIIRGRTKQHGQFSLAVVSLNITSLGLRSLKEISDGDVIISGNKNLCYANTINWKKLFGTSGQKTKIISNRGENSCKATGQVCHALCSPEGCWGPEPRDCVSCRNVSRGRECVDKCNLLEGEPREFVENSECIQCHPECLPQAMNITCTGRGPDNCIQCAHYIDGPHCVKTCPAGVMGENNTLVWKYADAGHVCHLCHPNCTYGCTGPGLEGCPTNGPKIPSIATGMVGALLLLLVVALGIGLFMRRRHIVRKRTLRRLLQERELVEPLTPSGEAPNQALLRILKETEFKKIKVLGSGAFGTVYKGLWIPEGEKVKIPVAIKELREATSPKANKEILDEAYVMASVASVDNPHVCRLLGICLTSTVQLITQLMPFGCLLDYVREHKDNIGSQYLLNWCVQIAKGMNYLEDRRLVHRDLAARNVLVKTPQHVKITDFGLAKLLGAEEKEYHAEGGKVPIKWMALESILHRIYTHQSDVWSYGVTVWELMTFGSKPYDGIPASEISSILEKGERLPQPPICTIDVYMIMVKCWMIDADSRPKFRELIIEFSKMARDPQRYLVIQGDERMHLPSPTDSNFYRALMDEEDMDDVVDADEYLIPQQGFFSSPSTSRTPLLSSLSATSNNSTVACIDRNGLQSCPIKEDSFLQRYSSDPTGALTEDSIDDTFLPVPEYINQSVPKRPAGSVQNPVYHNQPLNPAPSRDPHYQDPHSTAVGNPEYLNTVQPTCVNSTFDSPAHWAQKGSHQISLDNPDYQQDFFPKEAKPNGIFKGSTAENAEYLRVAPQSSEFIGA
# PROCEDURE_TEXT: Cellular proliferation (Alamar Blue) assay, EGFR A767_dupASV Ba/F3
# Assay type: cell-based
# CONDITION_SET: 72 hr, read-out: A767 IC50
Structures can show the parent of a compound that is named as a salt.
MEASURED_PARAMETER: GI50

Input line: So what's the measured GI50 for this one? C=CC(=O)Nc1ccc(OC)c(Oc2nc(Nc3cnn(C)c3)ncc2Cl)c1
Output line: > 10000 nM

Input line: So what's the measured GI50 for this one? C=CC(=O)Nc1ccc(F)c(Nc2nc(Nc3cnn(C)c3)ncc2-c2ccc(Cl)cc2)c1
Output line: 99 nM

Input line: So what's the measured GI50 for this one? C=CC(=O)Nc1ccc(F)c(Nc2nc(Nc3cnn(C)c3)ncc2-c2ccc(C(C)(C)C)cc2)c1 [Compound 76, trifluoroacetate]
Output line: 308 nM

Input line: So what's the measured GI50 for this one? C=CC(=O)Nc1ccc(F)c(Nc2nc(Nc3ccsc3)ncc2-c2ccc(C(F)(F)F)cc2)c1 [Compound 46, trifluoroacetate]
Output line: 2740 nM

Input line: So what's the measured GI50 for this one? C=CC(=O)Nc1ccc(F)c(N(C)c2nc(Nc3cnn(C)c3)ncc2-c2ccc(C(F)(F)F)cc2)c1
Output line: 891 nM

Input line: So what's the measured GI50 for this one? C=CC(=O)Nc1ccc(F)c(Nc2nc(Nc3cnn(C)c3)ncc2-c2cncc(F)c2)c1
Output line: 14 nM

Would you mind listing GI50 for each of the following molecules?
1. C=CC(=O)Nc1ccc(F)c(Nc2nc(Nc3ccc(OC)nc3)ncc2Cl)c1
2. C=CC(=O)Nc1ccc(F)c(Nc2nc(Nc3ccn(C)n3)ncc2Cl)c1
3. C=CC(=O)Nc1cccc(Oc2nc(NC3CC3)ncc2-c2ccc(C(F)(F)F)cc2)c1
4. C=CC(=O)Nc1ccc(F)c(Oc2nc(Nc3cnn(CCO)c3)ncc2Cl)c1
5. C=CC(=O)Nc1ccc(F)c(Nc2nc(Nc3cnn(C)c3)ncc2-c2ccc(Oc3cccc(F)c3)cc2)c1
6. C=CC(=O)Nc1ccc(OC)c(Nc2nc(Nc3cnn(C)c3)ncc2Cl)c1

Output line:
1: 3000 nM; 2: 9630 nM; 3: > 10000 nM; 4: 1330 nM; 5: 289 nM; 6: > 10000 nM

Would you mind listing GI50 for each of the following molecules?
1. C=CC(=O)Nc1ccc(F)c(Nc2nc(Nc3cnn(C)c3)ncc2-c2cccc(OC(F)(F)F)c2)c1 [Compound 96, trifluoroacetate]
2. C=CC(=O)Nc1ccc(F)c(Nc2nc(Nc3cnn(C(C)(C)C#N)c3)ncc2-c2ccc(C(F)(F)F)cc2)c1
3. CN(C)C/C=C/C(=O)Nc1ccc(F)c(Nc2nc(Nc3cnn(C)c3)ncc2-c2ccc(Br)cc2)c1
4. C=CC(=O)Nc1ccc(F)c(Nc2nc(Nc3cnn(C)c3)ncc2-c2ccnc(OC(F)F)c2)c1
5. C/C=C/C(=O)Nc1ccc(F)c(Nc2nc(Nc3cnn(C)c3)ncc2Cl)c1
6. C=CC(=O)Nc1ccc(F)c(Nc2nc(Nc3ccnn3C)ncc2Cl)c1
7. C=CC(=O)Nc1cc(Br)cc(Nc2nc(Nc3cnn(C)c3)ncc2-c2ccc(CC(F)(F)F)cc2)c1

Output line:
790 nM
303 nM
969 nM
107 nM
> 10000 nM
9870 nM
67 nM

Would you mind listing GI50 for each of the following molecules?
1. C=CC(=O)Nc1ccc(F)c(Nc2nc(Nc3cn(C)nc3C)ncc2-c2ccc(C(F)(F)F)cc2)c1 [Compound 135, trifluoroacetate]
2. C=CC(=O)Nc1ccc(F)c(Nc2nc(Nc3nc(C)cs3)ncc2-c2ccc(C(F)(F)F)cc2)c1
3. C=CC(=O)Nc1cccc(Oc2nc(Nc3cn(C)nc3Cl)ncc2-c2ccc(C(F)(F)F)cc2)c1
4. C=CC(=O)Nc1ccc(F)c(Nc2nc(Nc3cnn(C)c3)ncc2C2=CCOCC2)c1

Output line:
1: 257 nM; 2: 3680 nM; 3: 428 nM; 4: 284 nM

Would you mind listing GI50 for each of the following molecules?
1. C=CC(=O)Nc1ccc(F)c(Nc2nc(Nc3cnn(C)c3)ncc2-c2ccncc2)c1
2. C=CC(=O)Nc1ccc(F)c(Nc2nc(Nc3cn(C)nc3Cl)ncc2-c2ccc(Br)cc2)c1
3. C=CC(=O)Nc1ccc(F)c(Nc2nc(Nc3cnn(CC(C)(C)O)c3)ncc2-c2ccc(C(F)(F)F)cc2)c1
4. C=CC(=O)Nc1cccc(Oc2nc(Nc3cnn(C)c3)ncc2N2CCN(C)CC2)c1
5. C=CC(=O)Nc1cccc(Nc2nc(Nc3cnn(C)c3)ncc2-c2ccc(Br)cc2)c1F
6. C=CC(=O)Nc1ccnc(Nc2nc(Nc3cnn(C)c3)ncc2-c2ccc(C(F)(F)F)cc2)c1
7. C=CC(=O)Nc1ccc(F)c(Nc2nc(Nc3cnn(C)c3)ncc2-c2ccccc2C(F)(F)F)c1
8. C=CC(=O)Nc1ccc(F)c(Nc2nc(Nc3cccnc3)ncc2-c2ccc(C(F)(F)F)cc2)c1

Output line:
1. 325 nM
2. 131 nM
3. 861 nM
4. 9700 nM
5. 34 nM
6. 8470 nM
7. 2740 nM
8. 1130 nM
